The reported measurements were obtained from patent EP1388586A2.

- Target Of Assay: DRB1*0101 (DR1) (Homo sapiens, UniProt P01903+P01911, A100R/D57E/F55L/F60I/F76Y/I96L/L162R/M171V/P40L/Q125E/R42F/V115G/Y59C)
- Construct: used as sources of human HLA class II molecules; endogenous in cells; host or cells: LG2 (EBV-transformed homozygous B cell line)
- Experiment: Class II peptide-binding assay, DR1;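 further: competition assay: unlabeled test peptides inhibit binding of a radiolabeled probe peptide to purified DR, with half-maximal inhibition taken as an approximate dissociation constant Kd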
- Experimental Parameters: read-out: DR1 nM (In IC50 Format); purified HLA DR1
Ends that are not written are not given here.
Measurement Kind: IC50 (nM)

substance="LSGSHLVEALYLVSGERGFF [Peptide 734.02]" assay_value=14.4
substance="YARFQSQTTLKAKT-NH2 [Peptide 717.02]" assay_value=2.9
substance="YARFQSQTALKAKT-NH2 [Peptide 717.52]" assay_value=2.2
substance="RLANSLVHSSNNFGAILSS [Peptide 735.03]" assay_value=84.7
substance="YARFQSLTTLKAKT-NH2 [Peptide 717.15]" assay_value=1.2

* * *

- Target Of Assay: DRB10404 (DR4w14) (Homo sapiens, UniProt P01903+P01911, A100R/A169T/F76Y/I96L/K127E/L162R/M171V/N62H/P40V/Q125Y/R42H/S133A/S149N/S66Y/V209L/W38E)
- Construct: used as sources of human HLA class II molecules; endogenous in cells; host or cells: BIN40 (EBV-transformed homozygous B cell line)
- Experiment: Class II peptide-binding assay, DR4w14;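 further: unlabeled peptides compete with a radiolabeled probe for binding to affinity-purified HLA-DR, neutral pH, class II amount titrated to bind a small fraction of label, IC50 approximates Kd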
- Experimental Parameters: read-out: DR4w14 nM (In IC50 Format); purified HLA DR4w14
Ends that are not written are not given here.
// assign true if IC50 falls strictly below 70 nM, else false (ties count as false)

substance="YARFASQTTLKAKT-NH2 [Peptide 717.56]" qualitative_label=true
substance="AAFAAAAAQRLFA-NH2 [Peptide 761.01]" qualitative_label=false
substance="YARFQSQSTLKAKT-NH2 [Peptide 717.16]" qualitative_label=true
substance="YAKFQSQTTLKAKT-NH2 [Peptide 717.40]" qualitative_label=true
substance="YARFQSQTVLKAKT-NH2 [Peptide 717.32]" qualitative_label=true
substance="YARFQSQTTLKAKT-NH2 [Peptide 717.02]" qualitative_label=true
substance="INSWVESQTNGIIRNVLQPS [Peptide 732.01]" qualitative_label=false
substance="YAAFQSQTTLKAKT-NH2 [Peptide 717.30]" qualitative_label=true
substance="YARFQSQTYLKAKT-NH2 [Peptide 717.33]" qualitative_label=false
substance="YARFQSETTEKAKT-NH2 [Peptide 717.07]" qualitative_label=false
substance="YIAFLKQATAKLAT [Peptide 723.01]" qualitative_label=false
substance="YARFQSQTTLKSKT-NH2 [Peptide 717.23]" qualitative_label=true
substance="AFAAAATLKA-NH2 [Peptide 770.01]" qualitative_label=false
substance="KSNTATSATQRLANSLVH [Peptide 735.01]" qualitative_label=false
substance="YARFQSQTTLKAET-NH2 [Peptide 717.26]" qualitative_label=true
substance="YARFQSQTPLKAKT-NH2 [Peptide 717.37]" qualitative_label=true
substance="YARFQSQTTIKAKT-NH2 [Peptide 717.19]" qualitative_label=true
substance="YARFQRQTTLKAAA-NH2 [Peptide 717.10]" qualitative_label=true
substance="YARAQSQTTLKAKT-NH2 [Peptide 717.29]" qualitative_label=true
